# subject-of-test: T1, Soluble CDCP1 extracellular domain (CDCP1-ECD) (SEQ ID NO:30) fused to Streptavidin Binding Protein (SBP) (human, UniProt Q9H5V8 30-663)
# T1 construct: also called SBP-CDCP1-ECD
# T1 sequence: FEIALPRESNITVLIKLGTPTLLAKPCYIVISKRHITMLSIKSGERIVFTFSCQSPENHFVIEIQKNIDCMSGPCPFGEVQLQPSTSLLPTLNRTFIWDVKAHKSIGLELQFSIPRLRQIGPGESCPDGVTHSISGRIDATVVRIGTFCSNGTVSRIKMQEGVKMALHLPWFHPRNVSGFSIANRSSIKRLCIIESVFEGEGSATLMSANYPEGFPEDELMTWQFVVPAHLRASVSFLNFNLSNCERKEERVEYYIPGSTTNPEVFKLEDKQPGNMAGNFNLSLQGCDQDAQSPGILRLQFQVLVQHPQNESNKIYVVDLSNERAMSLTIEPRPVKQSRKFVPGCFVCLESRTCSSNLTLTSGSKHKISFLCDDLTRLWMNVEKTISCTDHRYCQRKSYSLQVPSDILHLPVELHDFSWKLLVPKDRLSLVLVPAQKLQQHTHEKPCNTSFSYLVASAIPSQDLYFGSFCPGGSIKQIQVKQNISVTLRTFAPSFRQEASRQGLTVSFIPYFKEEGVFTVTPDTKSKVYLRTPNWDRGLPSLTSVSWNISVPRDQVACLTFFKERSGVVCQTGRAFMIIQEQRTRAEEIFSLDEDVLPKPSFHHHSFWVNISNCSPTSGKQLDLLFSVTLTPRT
# measurement-description: ELISA on captured SBP-CDCP1-ECD, ratio relative to chimeric CUB4 (chHC4)
# Procedure: Soluble CDCP1 extracellular domain (CDCP1-ECD) (SEQ ID NO:30) fused to Streptavidin Binding Protein (SBP) was captured on a sreptavidine plate. […] Humanized CUB4 antibodies and/or reference antibody (chimeric (chHC4) CUB4 antibody comprising human constant region and mouse VH and VL of SEQ ID NO:1 and 2) were tested either undiluted or using a 12-step-dilution. […] After intensive washing the binding of the antibodies was detected with ABTS tablets (Roche Diagnostics GmbH, Cat. No.: 1112422). […]
readout-name: binding result

* hHC4-07 / hLC4-I (antibody, V domains shown) VH: EVQLLESGGGLVQPGGSLRLSCAASGFTFNSYAMSWVRQAPGKGLEWVSTISSGGSYTYYPDSVKGRFTISRDNSKNTLYLQMNSLRAEDTAVYYCAKHPDYDGVWFAYWGQGTLVTVSS VL: EIVMTQSPATLSLSPGERATLSCRASSSVFYLSWYQQKPGQAPRLWIYDTSKLASGIPARFSGSGSGTDFTLTISSLQPEDFAVYYCQQWNSNPPTFGGGTKVEIK | no binding
* hHC4-K / hLC4-b (antibody, V domains shown) VH: EVQLVESGGGLVKPGGSLRLSCAASGFTFNSYGMSWVRQAPGKGLEWVSSISSGGSYIYYADSVKGRFTISRDNAKNSLYLQMNSLRAEDTAVYYCARHPDYDGVWFAYWGQGTLVTVSS VL: EIVLTQSPATLSLSPGERATLSCSVSSSVFYVHWYQQKPGQAPRLLIYDTSKLASGIPARFSGSGSGTDYTLTISSLEPEDFAVYYCQQWNSNPPTFGGGTKVEIK | no binding
